- study target: α1-receptors ([3H]prazosin)
- assay summary: [3H]Prazosin binding (α1-receptors), rat cerebral cortices
- assay conditions: rat cerebral cortex, 0.35 nM [3H]prazosin, 25° C., 30 min; read-out: [3H] prazosine IC50
- Description: Rat cerebral cortices were homogenized in 50 volumes of original wet weight of ice-cold 50 mM Tris-HCl buffer pH 7.4. […] The radioactivity retained on the filters was determined by liquid scintillation counting. Data analysis The inhibition of specific binding of the radioligands by the tested drugs was analyzed to estimate the IC50 value by using the non-linear curve-fitting program Allfit [A. De Lean et al., Am. […]
pIC50: −log10 of the molar value. Counter-ions that a name gives are not always drawn.
Kind request: treat 7 as inclusive, so pIC50 at 7 or higher is condition met, anything lower is condition not met.

COc1cc2nc(N3CCN(C(c4ccccc4)c4ccccc4)CC3)nc(N)c2cc1OC [Example 2]: condition met

Ask: Please tell me: is the compound COc1cc2nc(N3CCN(C(=O)CNC(=O)CNC(=O)OCc4ccccc4)CC3)nc(N)c2cc1OC [Example 12, hydrochloride hemihydrate] at or over 7 in terms of pIC50?
Result: condition met

Ask: Please tell me: is the compound COc1ccc(CC2c3cc(OC)c(OC)cc3CCN2c2nc(N)c3cc(OC)c(OC)cc3n2)cc1OC (stereo not shown) [Example 33, hydrochloride hydrate] at or over 7 in terms of pIC50?
Result: condition not met

Ask: Please tell me: is the compound COc1cc2nc(N3CCN(C(=O)COc4c(OC)cccc4C(C)C)CC3)nc(N)c2cc1OC.Cl [Example 24, hydrochloride] at or over 7 in terms of pIC50?
Result: condition met

Ask: Please tell me: is the compound COc1cc2nc(N3CCN(C(=O)C(c4ccccc4)c4ccccc4)CC3)nc(N)c2cc1OC [Example 3] at or over 7 in terms of pIC50?
Result: condition met
